tested on: plasma; assay: Plasma coagulation assay: activated partial thromboplastin time (APTT); type: biochemical; conditions: Actin (Dade), CaCl2
Structures can show the parent of a compound that is named as a salt. Square brackets hold non-standard residues; d marks the D form. Peptide text beside a SMILES is read from it. * marks the point of attachment. dNMePhg = CN[C@@H](C(=O)O)c1ccccc1; dChg = N[C@@H](C(=O)O)C1CCCCC1; dPhg = N[C@@H](C(=O)O)c1ccccc1; Boc = CC(C)(C)OC(=O)*
property_measured: APTT: concentration of test compounds required to prolong coagulation by 2-fold (ng/mL)
Entry rule: numbers only, all in ng/mL.

Ask | What is its APTT: concentration of test compounds required to prolong coagulation by 2-fold for plasma? Entry: CC[C@@H](C(=O)N1CCC[C@H]1C(=O)N[C@H](C=O)CCCNC(=N)N)c1ccccc1 [(R)-α-Ethylphenylacetyl]
Reply | 2275

Ask | Param item: CC(C)(C)OC(=O)N[C@@H](C(=O)N1CCC[C@H]1C(=O)N[C@H](C=O)CCCNC(=N)N)c1ccccc1 [N-Boc-D-phenylglycyl, diacetate salt] (Boc-[dPhg]-Pro-Arg-aldehyde)
Reply | 1169

Ask | Then CC(C)(C)OC(=O)N[C@@H](C(=O)N1CCC[C@H]1C(=O)N[C@H](C=O)CCCNC(=N)N)C1CCCCC1 [N-Boc-D-cyclohexylglycyl] (Boc-[dChg]-Pro-Arg-aldehyde) ?
Reply | 748

Ask | How about COc1ccc([C@@H](NC(=O)OC(C)(C)C)C(=O)N2CCC[C@H]2C(=O)N[C@H](C=O)CCCNC(=N)N)cc1 ?
Reply | 640

Ask | Next record, please: CN(C(=O)OC(C)(C)C)[C@@H](C(=O)N1CCC[C@H]1C(=O)N[C@H](C=O)CCCNC(=N)N)c1ccccc1 [N-Boc-N-methyl-D-phenylglcyl] (Boc-[dNMePhg]-Pro-Arg-aldehyde)
Reply | 4545
